The reported numbers originate from PubChem BioAssay.

Assay: binders from COS7 lysate, DM2A8 probe, primary screen, torsin A project, cell lysate, small-molecule microarray, fluorescence 635/667 (AID 1065)
Settings: higher = more signal, COS7 lysate expressing mutant human TOR1A
Quantity Measured: composite z-score
API doc: respond with a numeric literal and nothing else, no unit.

Example cases with answers are listed next.
INSERT INTO assay_data (molecule, quantity_measured, recorded_result) VALUES
  ('C=CCOC(=O)[C@@H]1[C@H]2C(=O)O[C@H](c3ccccc3)[C@H](c3ccccc3)N2[C@H](c2ccc(OCCOC(=O)[C@@H]3C[C@@H]4C(=O)N[C@@H](Cc5ccccc5)C(=O)N4[C@@H]3c3ccc(O)cc3)cc2)[C@@]12C(=O)Nc1ccc(I)cc12', 'composite z-score', 0.602),
  ('COC(=O)[C@@]1(Cc2ccc(OC)cc2)[C@H]2c3cc(C(=O)N4CCCC4)n(Cc4ccc(OC)c(OC)c4)c3C[C@H]2CN1C(=O)c1ccccc1', 'composite z-score', 0.188);

query: Recall and state the measured composite z-score for Cc1ccc(S[C@]2(C(=O)NC3CC3)CC(=O)N(C3Cc4ccccc4C3)[C@@H]2c2ccc(CO)cc2)cc1 .
result: -0.233

query: Provide only the value of recorded composite z-score for C=CCNC(=O)[C@H]1[C@@H]2C(=O)O[C@@H](c3ccccc3)[C@@H](c3ccccc3)N2[C@@H](c2ccc(O)cc2)[C@]12C(=O)N(C(=O)OCCOC)c1ccc(C#CCNC(N)=O)cc12
result: -0.019

query: Given CN1C(=O)[C@]2(Cc3ccccc3)N=C(c3ccc(OCCCO)cc3)O[C@@H]2c2ccccc21 , respond with its composite z-score.
result: 0.758
